Please go through the items and note down their GI50.
- System: 786-0
- assay comment: NCI tumour cell line growth inhibition, 48 h
The source made the active and inactive calls. Rule as the data show it: active = GI50 up to about 1.1 µM and inactive = higher.

**Query** Write down the reported GI50 of O=C1O[C@]2(c3ccccc3)C(c3ccccc3)=C[C@]2(C(=O)c2ccccc2)C1=O , test system: 786-0.
**Result** 26.2 µM (inactive)

**Query** Also CCN(CC)c1ccc(/C=C/C(=O)c2cc(C(C)(C)C)c(O)c(C(C)(C)C)c2)cc1 ?
**Result** 14.2 µM (inactive)

**Query** Also Clc1ccc(-c2nn3c(COc4cccc(OCc5nnc6sc(-c7ccc(Cl)cc7)nn56)c4)nnc3s2)cc1 ?
**Result** 15.1 µM (inactive)

**Query** Also O/N=C/c1cc2c(cc1Br)OCO2 ?
**Result** > 100 µM (inactive)

**Query** Also CC(C)[C@@H]1NC(=O)[C@H]2N=C(O[C@@H]2C)[C@@H]2CCCN2C(=O)[C@H](Cc2ccccc2)NC(=O)[C@@H]2CSC(=N2)[C@@H](Cc2ccccc2)NC(=O)[C@@H]2CSC1=N2 ?
**Result** > 50 µM (inactive)

**Query** Also CC(C)(CO)NC1=C(Cl)C(=O)c2c(O)ccc(O)c2C1=O ?
**Result** 1.46 µM (inactive)

**Query** Also CC(=O)c1cccc(NC(=O)C(=O)NNc2nnc(S)n2N)c1 ?
**Result** 11.3 µM (inactive)

**Query** Also CC(C)c1ccc2c(c1)/C(=C1/Nc3ccccc3/C1=N/O)C(=O)N2 ?
**Result** 4.85 µM (inactive)

**Query** Also C[n+]1c2ccc(Cl)cc2nc2cc(-c3ccccc3)ccc21 ?
**Result** 35.3 µM (inactive)

**Query** Also CC1CC/C(=C\c2ccc(N(C)C)cc2)C(=O)/C1=C/c1ccc(N(C)C)cc1 (centres undefined) ?
**Result** > 100 µM (inactive)

**Query** Also C[C@]12CC[C@@H]3c4ccc(OP(=O)(O)O)cc4CC[C@H]3[C@@H]1CCC2=O ?
**Result** > 100 µM (inactive)

**Query** Also COc1ccc(N2C(=O)c3c(c4[nH]c5ccccc5c4c4ccc(C(C)(C)C)cc34)C2=O)cc1 ?
**Result** 28.4 µM (inactive)

**Query** Also CC(C)(C)c1cc(C(C)(C)C)c(SSc2c(C(C)(C)C)cc(C(C)(C)C)c(O)c2O)c(O)c1O ?
**Result** 6.4 µM (inactive)

**Query** Also COc1cc(C2C(Cl)C(=O)N2NC(=O)c2ccccc2O)cc(OC)c1OC (centres undefined) ?
**Result** > 10 µM (inactive)

**Query** Also C[C@@H](NS(=O)(=O)c1ccc(NC(=O)c2ccccc2)cc1)C(=O)O ?
**Result** > 100 µM (inactive)

**Query** Also O=C(c1ccc(Cl)cc1)c1cnc(Nc2ccccc2Cl)s1 ?
**Result** 17.5 µM (inactive)

**Query** Also CN(C)CCCN1c2ccccc2Sc2ccc3ccccc3c21 ?
**Result** 11 µM (inactive)

**Query** Also CN1CCc2nc(N)nc(-c3nc(N)nc4c3CN(C)CC4)c2C1 ?
**Result** > 100 µM (inactive)

**Query** Also Cc1cc(N(CCC#N)CCC#N)ccc1C(/N=N/c1ccc(Cl)cc1)=N\NC(=O)c1cc(Cl)ccc1O ?
**Result** 30.6 µM (inactive)
